- procedure_text: Cytotoxicity against HEK293T cells assessed as growth inhibition at 20 uM after 48 hrs by CCK8 assay relative to control
- Assay type: cell-based, HEK-293T
- details: human, HEK293T cells; read-out: GI
For each entry below, report its inhibition at 48 h, 20 µM value.
Give bare numbers, in %.

Some solved entries appear below for comparison.
>  <compound_string>
N#C/C(=C\c1ccccc1OS(=O)(=O)c1ccc(C(F)(F)F)cc1)C(=O)Nc1nnc(-c2cccs2)s1

>  <endpoint_unit>
%

>  <experimental_result>
57

$$$$
>  <compound_string>
N#C/C(=C\c1ccccc1OS(=O)(=O)c1ccc(OC(F)(F)F)cc1)C(=O)Nc1nnc(-c2cc3ccccc3[nH]2)s1

>  <endpoint_unit>
%

>  <experimental_result>
53

$$$$
>  <compound_string>
Cc1ccc(Cc2nnc(NC(=O)/C(C#N)=C/c3ccccc3OS(=O)(=O)c3ccc(C)cc3)s2)cc1

>  <endpoint_unit>
%

>  <experimental_result>
22

$$$$

Reported inhibition at 48 h, 20 µM for Cc1ccc(S(=O)(=O)Oc2ccccc2/C=C(\C#N)C(=O)Nc2nnc(Cc3ccc(Cl)cc3)s2)cc1 : what is it?
20

----------
- procedure_text: Cytotoxicity against HEK293T cells assessed as growth inhibition at 20 uM after 48 hrs by CCK8 assay relative to control
- Format: cell-based, HEK-293T
- details: human, HEK293T cells; read-out: GI
For each entry below, report its inhibition at 48 h, 20 µM value.
Numbers only, in %.

Some solved entries appear below for comparison.
>  <compound_string>
COc1ccc(Cc2nnc(NC(=O)/C(C#N)=C/c3ccccc3OS(=O)(=O)c3ccc(C)cc3)s2)cc1

>  <result_type>
inhibition at 48 h, 20 µM

>  <endpoint_unit>
%

>  <experimental_result>
21

$$$$
>  <compound_string>
N#C/C(=C\c1cccc(OS(=O)(=O)c2cccs2)c1)C(=O)Nc1nnc(-c2cccs2)s1

>  <result_type>
inhibition at 48 h, 20 µM

>  <endpoint_unit>
%

>  <experimental_result>
50

$$$$
>  <compound_string>
N#C/C(=C\c1ccccc1OS(=O)(=O)c1ccc([N+](=O)[O-])cc1)C(=O)Nc1nnc(Cc2ccc(F)cc2)s1

>  <result_type>
inhibition at 48 h, 20 µM

>  <endpoint_unit>
%

>  <experimental_result>
8

$$$$

Go through the items and report each one's inhibition at 48 h, 20 µM.
1. COc1ccc(S(=O)(=O)Oc2ccccc2/C=C(\C#N)C(=O)Nc2nnc(Cc3ccc(C)cc3)s2)cc1
2. Cc1ccc(S(=O)(=O)Oc2ccccc2/C=C(\C#N)C(=O)Nc2nnc(C)s2)cc1

28
35

Go through the items and report each one's inhibition at 48 h, 20 µM.
1. COc1ccc(S(=O)(=O)Oc2ccccc2/C=C(\C#N)C(=O)Nc2nnc(Cc3ccccc3)s2)cc1
2. N#C/C(=C\c1ccccc1OS(=O)(=O)c1ccc(Cl)cc1)C(=O)Nc1nnc(-c2cccs2)s1
3. COc1ccc(Cc2nnc(NC(=O)/C(C#N)=C/c3ccccc3OS(=O)(=O)c3ccccc3[N+](=O)[O-])s2)cc1
4. CC(=O)Nc1ccc(S(=O)(=O)Oc2cccc(/C=C(\C#N)C(=O)Nc3nnc(-c4cccs4)s3)c2)cc1
5. Cc1ccc(Cc2nnc(NC(=O)/C(C#N)=C/c3ccccc3OS(=O)(=O)c3ccc(F)cc3)s2)cc1
6. COc1ccc(S(=O)(=O)Oc2ccccc2/C=C(\C#N)C(=O)Nc2nnc(Cc3ccc(Cl)cc3)s2)cc1
7. N#C/C(=C\c1ccccc1OS(=O)(=O)c1ccc(Cl)cc1)C(=O)Nc1nnc(Cc2cccc3ccccc23)s1

1. 23
2. 46
3. 18
4. 20
5. 11
6. 26
7. 16
